Cited source for all entries: ChEMBL document CHEMBL3351688

Tested on: Mus musculus
Assay: Anticonvulsant activity in Swiss mouse assessed as protection against seizures administered intraperitoneally 15 mins before test by maximal electroshock seizure test
Format: functional
Details: ip
Below, each entry is listed alongside its reported ED50.
API: value field is a number in mg/kg; no unit string.

Sample `CCCCCCCn1c(Cc2cccc(Cl)c2)n[nH]c1=S` ; ED50 observed: 49.7

The compound `CCCCCn1c(Cc2cccc(Cl)c2)n[nH]c1=S` showed ED50 equal to 48.5

The value of ED50 measured for the compound `CCn1c(Cc2cccc(Cl)c2)n[nH]c1=S` turned out to be 51.1

---

Measured selectivity ratio at 2 h, listed per entry for reference.
Experiment: Protective index, ratio of TD50 in ip Swiss mouse dosed intraperitoneally 120 mins before test by Chimney test to anticonvulsant ED50 in Swiss mouse dosed intraperitoneally 120 mins before test by MES test
Assay type: ADME, organism-based
Details: in vivo, read-out: Ratio TD50/ED50
Answer as a number with no unit attached.

Known results for molecules:
smiles_structure=CCn1c(Cc2cccc(Cl)c2)n[nH]c1=S result_type="selectivity ratio at 2 h" value_measured=3.9
smiles_structure=CCCCCn1c(Cc2cccc(Cl)c2)n[nH]c1=S result_type="selectivity ratio at 2 h" value_measured=4.1
smiles_structure=CCCCCCn1c(Cc2cccc(Cl)c2)n[nH]c1=S result_type="selectivity ratio at 2 h" value_measured=5.6
smiles_structure=CCCCCCCCCn1c(Cc2cccc(Cl)c2)n[nH]c1=S result_type="selectivity ratio at 2 h" value_measured=2.3

Please fill in: selectivity ratio at 2 h reported for `CCCCCCCCn1c(Cc2cccc(Cl)c2)n[nH]c1=S` = 2

---

Test system: Mus musculus
Experiment: Anticonvulsant activity in Swiss mouse assessed as protection against seizures at 300 mg/kg, ip administered 30 mins before test by maximal electroshock seizure test
Type: functional
Details: route intraperitoneal
result-type: Activity (%)
Please respond with the number in % and leave the unit unwritten.

The cases that follow already have their Activity on record.
smiles_structure=CCCCCCCCn1c(Cc2cccc(Cl)c2)n[nH]c1=S system="Mus musculus" value_measured=100
smiles_structure=CCCCCn1c(-c2cccc(Cl)c2Cl)n[nH]c1=S system="Mus musculus" value_measured=62.5
smiles_structure=CCCCCCn1c(Cc2cccc(Cl)c2)n[nH]c1=S system="Mus musculus" value_measured=100
smiles_structure=CCCCCCCCCCCCn1c(Cc2cccc(Cl)c2)n[nH]c1=S system="Mus musculus" value_measured=0
smiles_structure=CCCCCCCn1c(-c2cccc(Cl)c2Cl)n[nH]c1=S system="Mus musculus" value_measured=25
smiles_structure=CCCCCCCCCn1c(Cc2cccc(Cl)c2)n[nH]c1=S system="Mus musculus" value_measured=100
smiles_structure=CCn1c(-c2cccc(Cl)c2Cl)n[nH]c1=S system="Mus musculus" value_measured=0

Now turn to the next compound.
The recorded Activity for `CCCCCCn1c(-c2cccc(Cl)c2Cl)n[nH]c1=S` is 12.5
